assayed-target: T1, human CD19 (on Raji cells, CD19+ homo sapiens Burkitt's lymphoma) (human, UniProt P15391 20-556)
T1 construct: whole, on cells; also called B-lymphocyte antigen CD19; B4
T1 sequence (looked up): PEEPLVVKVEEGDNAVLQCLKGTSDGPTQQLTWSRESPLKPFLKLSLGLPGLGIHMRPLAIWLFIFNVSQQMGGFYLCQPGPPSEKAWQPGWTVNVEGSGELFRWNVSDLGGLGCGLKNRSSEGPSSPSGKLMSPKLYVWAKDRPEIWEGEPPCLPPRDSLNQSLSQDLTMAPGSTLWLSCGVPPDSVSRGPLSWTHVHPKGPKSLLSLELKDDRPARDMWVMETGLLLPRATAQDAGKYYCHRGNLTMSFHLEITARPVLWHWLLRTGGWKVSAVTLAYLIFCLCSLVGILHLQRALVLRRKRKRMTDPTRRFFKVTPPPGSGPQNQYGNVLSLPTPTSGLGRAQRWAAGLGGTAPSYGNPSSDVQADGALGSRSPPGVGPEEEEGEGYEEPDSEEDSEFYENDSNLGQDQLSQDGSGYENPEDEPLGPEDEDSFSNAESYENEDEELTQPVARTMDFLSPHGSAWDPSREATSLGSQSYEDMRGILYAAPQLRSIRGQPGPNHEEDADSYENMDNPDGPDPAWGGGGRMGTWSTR
assay-protocol: flow cytometry titration on Raji cells, anti-His FITC
Listing of entries alongside the reported EC50.

- binder: "JS-scFv (scFv, leader left out here) scFv: DIQMTQSPSSLSASVGDRVTITCRASQDISKYLNWYQQKPDQAPKLLIKHTSRLHSGVPSRFSGSGSGTDYTLTISSLQPEDFATYYCQQGNTLPYTFGQGTKLEIKGSTSGSGKPGSGEGSTKGEVQLVESGGGLVQPGRSLRLSCTASGVSLPDYGVSWIRQPPGKGLEWIGVIWGSETTYYNSALKSRFTISRDNSKNTLYLQMNSLRAEDTAVYYCAKHYYYGGSYAMDYWGQGTLVTVSSHHHHHH"
  EC50: "66 nM"

[Q] Please give the measured EC50 for this binder: SS-scFv (scFv, leader left out here) scFv: DIQMTQSPSFLSASVGDRVTITCRASQDISKYLNWYQQKPDQAPKLLIKHTSRLHSGVPSRFSGSGSGTDFTFTISSLQPEDIATYYCQQGNTLPYTFGQGTKLEIKGSTSGSGKPGSGEGSTKGEVQLVESGGGLVQPGRSLRLSCTASGVSLPDYGVSWVRQPPGKGLEWIGVIWGSETTYYNSALKSRFTISRDNSKNTLYLQMNSLRAEDTAVYYCAKHYYYGGSYAMDYWGQGTLVTVSSHHHHHH
[A] 72.8 nM

[Q] Next binder up: NS-scFv (scFv, leader left out here) scFv: DIQMTQSPSSLSASVGDRVTITCRASQDISKYLNWYQQKPGKAVKLLIYHTSRLHSGVPSRFSGSGSGTDYTLTISSLQPEDIATYFCQQGNTLPYTFGGGTKLEIKGSTSGSGKPGSGEGSTKGQVQLQESGPGLVKPSETLSVTCTVSGVSLPDYGVSWIRQPPGKGLEWLGVIWGSETTYYNSALKSRLTISKDTSKNQVFLKMSSLTAADTAIYYCAKHYYYGGSYAMDYWGQGTLVTVSSHHHHHH
[A] 34 nM

[Q] Next binder up: AS-scFv (scFv, leader left out here) scFv: DIQMTQSPSTLSASVGDRVTITCRASQDISKYLNWYQQKPDQAPKLLIKHTSRLHSGVPSRFSGSGSGTDFTFTISSLQPEDIATYYCQQGNTLPYTFGQGTKLEIKGSTSGSGKPGSGEGSTKGQVQLQESGPGLVKPSGTLSLTCAVSGVSLPDYGVSWIRQPPGKGLEWIGVIWGSETTYYNSALKSRVTISRDNSKNTLYLQMNSLRAEDTAVYYCAKHYYYGGSYAMDYWGQGTLVTVSSHHHHHH
[A] 53.1 nM
